Recorded measurements of pIC50, one per entry
Biological target: full length active recombinant SYK enzyme (Homo sapiens, UniProt P43405)
Construct: full length active recombinant SYK enzyme (Millipore, CA)
Test: Inhibition of Syk tyrosine phosphorylation activity (LANCE TR-FRET kinase assay)
Conditions: 1 nM active SYK enzyme, 550 nM SYK-substrate, 100 μM ATP, 1 hour at room temperature
Experimental: The in vitro and in vivo human Syk activities of the inventive compounds can be determined by various procedures known in the art, such as a test for their ability to inhibit the activity of human plasma Syk. […] The IC50 value is the concentration (in nM) of the compound required to provide 50% inhibition of human Syk proteolytic activity. […] SYK tyrosine phosphorylation activity is measured using the LANCE™ Technology developed by Perkin Elmer Life and Analytical Sciences (Boston, Mass.). […]
pIC50: −log10 of the molar value.

Take a look at these entries with their results.
# smilesEntry, endpointValue
data = [
    ("NC(=O)c1ncc(N[C@@H]2CCCC[C@@H]2N)cc1Nc1nc(-c2ccccc2)no1", "7.00 to 8.00"),
    ("Cc1cc(Nc2cc(N[C@H](CCS(C)(=O)=O)C(N)=O)cnc2C(N)=O)sn1", "7.00 to 8.00"),
    ("Cc1cc(Nc2cc(N[C@H]3CC[C@@H](N)CC3)cnc2C(N)=O)sn1", "7.00 to 8.00"),
    ("NC(=O)c1ncc(N[C@@H]2CCOC[C@@H]2N)cc1Nc1cc(-c2cccnc2)no1", "7.00 to 8.00"),
    ("CC(C)[C@@H](Nc1cnc(C(N)=O)c(Nc2cc(C3CC3)no2)c1)C(N)=O", "7.00 to 8.00"),
    ("CC(C)(C)C[C@@H](Nc1cnc(C(N)=O)c(Nc2cc(F)c3ncccc3c2)c1)C(N)=O", "7.00 to 8.00"),
]

Briefly, pIC50 measured for NC(=O)c1ncc(N[C@@H]2CCCC[C@@H]2N)cc1Nc1ccc2ncccc2c1 : 7.00 to 8.00

The compound listed as Cc1cc(Nc2cc(N[C@@H](C(N)=O)C(C)C)cnc2C(N)=O)sn1 shows pIC50 equal to 7.00 to 8.00

====

biological target: full length active recombinant SYK enzyme (Homo sapiens); construct: full length active recombinant SYK enzyme (Millipore, CA); purchased Millipore, CA; assay: Inhibition of Syk tyrosine phosphorylation activity (LANCE TR-FRET kinase assay); assay type: biochemical; conditions: 1 nM active SYK enzyme, 550 nM SYK-substrate, 100 μM ATP, 1 hour at room temperature
readoutName: IC50

# compound, studyTarget, IC50
data = [
    ("CC(C)C[C@@H](Nc1cnc(C(N)=O)c(Nc2cc(-c3ccncc3)no2)c1)C(N)=O [Example 47]", "full length active recombinant SYK enzyme (Homo sapiens)", "1 to 10 nM"),
]

Given the compound CC(C)C[C@@H](Nc1cnc(C(N)=O)c(Nc2ccc3cnccc3c2)c1)C(N)=O [Example 17] and test system full length active recombinant SYK enzyme (Homo sapiens), the measured IC50 is 10 to 100 nM

Bench note, full length active recombinant SYK enzyme (Homo sapiens): CCc1cc(Nc2cc(N[C@@H]3CCCC[C@@H]3N)cnc2C(N)=O)on1 [Example 37] , IC50 reads 10 to 100 nM

Lab entry: full length active recombinant SYK enzyme (Homo sapiens) assay, compound CC[C@@H](Nc1cnc(C(N)=O)c(Nc2cc(C3CC3)ns2)c1)C(N)=O [Example 38] , IC50 = 1 to 10 nM
